Data provenance is PubChem BioAssay (NCI).

Assay: NCI Yeast Anticancer Drug Screen. Data for the wt2 strain (AID 169);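 also: 0% = growth of vehicle-treated yeast cultures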
Conditions: S. cerevisiae wt2 strain growth inhibition; at 33.0 µM; active compounds read high
Compounds without any hit were thinned out: in the full panel of roughly 79,000, 15% have a hit.
Items are presented alongside their recorded growth inhibition.
measure name: growth inhibition (%)

>>> measured_value("Cc1ccc(I)cc1N=C=S")
82
>>> measured_value("CC(C)c1cccc(O)c(=O)c1")
70
>>> measured_value("Cc1cc(N=C2C=CC(=[N+](C)C)C=C2)c(N)cc1N")
22
>>> measured_value("O=C(/C=C/c1cccc(Br)c1)c1ccc(Cl)cc1")
20
>>> measured_value("Oc1ccc(C=Nc2ccccc2O)cc1")
43
>>> measured_value("CCOP1(=O)C=C(Sc2ccc([N+](=O)[O-])cc2[N+](=O)[O-])C(C)(C)O1 (configuration not stated)")
25
>>> measured_value("N#C/C(=C/N1C(=O)/C(=C/c2ccc([N+](=O)[O-])cc2)SC1=S)c1nc2ccccc2s1")
31
>>> measured_value("Cc1ccc(Nc2c3c(c(C#N)c4nc5ccccc5n24)CCCC3)cc1")
74
>>> measured_value("O=C1C=CC(=O)N1c1ccc(I)cc1")
100
>>> measured_value("CC1CCC2(C(=O)O)CCC3(C)C(=CCC4C5(C)CC(O)C(O)C(C)(CO)C5C(O)CC43C)C2C1C (configuration not stated)")
21
>>> measured_value("CCCCCCSc1nc(COC(=O)NC)c(COC(=O)NC)n1C")
33
>>> measured_value("Cc1cc(Cl)ccc1NC(=O)/C(Cl)=C1/Sc2ccccc2NC1=O")
-2
